- Target Under Test: T1, recombinant human cardiac troponin T (human, UniProt P45379 2-298)
- T1 construct: In the ECL assay the cTnT came from the Troponin T hs CalSet calibrator; also called cTnT; TnT
- Test: SPR (Biacore T200, 37 C), Fab captured, cTnT analyte
Experimental Readout: t/2-diss (min)
Give bare numbers, in min.

- Binder: "parental anti-cTnT Fab fragment (wildtype TnT M-7 Fab, from antibody 12.1A11.11-7) (Fab, V domains shown, also called wildtype Fab; TnT M-7 (wildtype) Fab) VH: EVQLQQSGPELVKPGASVKMSCKASGYTFTDYYMKWVKQSHGKSLEWIGDINPNNGETFYNQKFKDKATLTVDKSSSTAYMQLNSLTSEDSAVYYCATRVFDYWGQGTTLTVSS VL: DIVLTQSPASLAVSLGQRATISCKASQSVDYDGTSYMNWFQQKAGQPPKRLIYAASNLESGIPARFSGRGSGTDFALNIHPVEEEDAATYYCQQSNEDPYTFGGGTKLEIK"
  Experimental Readout: "t/2-diss"
  Value Measured: 8
- Binder: "anti-cTnT Fab mutant 1 (Y34F) (Fab, V domains shown, also called combination 1) VH: EVQLQQSGPELVKPGASVKMSCKASGYTFTDYFMKWVKQSHGKSLEWIGDINPNNGETFYNQKFKDKATLTVDKSSSTAYMQLNSLTSEDSAVYYCATRVFDYWGQGTTLTVSS VL: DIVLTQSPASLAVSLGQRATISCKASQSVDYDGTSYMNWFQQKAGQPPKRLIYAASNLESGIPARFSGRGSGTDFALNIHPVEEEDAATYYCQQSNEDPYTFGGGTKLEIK"
  Experimental Readout: "t/2-diss"
  Value Measured: 8

Below: the item to evaluate.
t/2-diss reported for this binder anti-cTnT Fab mutant 5 (Y34F, F60W, V101Y + Y104F) (Fab, V domains shown, also called combination 5) VH: EVQLQQSGPELVKPGASVKMSCKASGYTFTDYFMKWVKQSHGKSLEWIGDINPNNGETWYNQKFKDKATLTVDKSSSTAYMQLNSLTSEDSAVYYCATRYFDFWGQGTTLTVSS VL: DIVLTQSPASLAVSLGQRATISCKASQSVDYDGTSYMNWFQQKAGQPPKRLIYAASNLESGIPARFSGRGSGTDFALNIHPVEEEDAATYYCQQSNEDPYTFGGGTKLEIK : 20

Values compiled from patent US20210009668A1.
